# System: gastric secretion in the rat
# ASSAY TEXT: Effects on gastric secretion in the rat
# Assay type: in vivo
# TEST CONTEXT: comparison in words
READOUT KIND: GAS value, carbinol versus methyl ester analogue

>  <MOLECULE>
CCCCC(O)C/C=C/[C@H]1[C@H](O)CC(=O)[C@@H]1CCCCCCCO (stereo partly drawn) [TR 4706, 1,11α,16RS-trihydroxyprost-13E-en-9-one]

>  <TGT>
gastric secretion in the rat

>  <RESULT>
the same

$$$$
>  <MOLECULE>
CCCCC(O)C/C=C/[C@H]1[C@H](O)CC(=O)[C@@H]1CCCCCCC(=O)OC (some centres unmarked) [TR 4705, reference compound]

>  <TGT>
gastric secretion in the rat

>  <RESULT>
the same

$$$$
>  <MOLECULE>
CCCCC(C)(O)C/C=C/[C@H]1[C@H](O)CC(=O)[C@@H]1CCCCCCC(=O)OC (some centres unmarked) [TR 4704, reference compound]

>  <TGT>
gastric secretion in the rat

>  <RESULT>
the same

$$$$
>  <MOLECULE>
CCCC(C)C(O)C/C=C/[C@H]1[C@H](O)CC(=O)[C@@H]1CCCCCCCO (some centres unmarked)

>  <TGT>
gastric secretion in the rat

>  <RESULT>
lower

$$$$

Pending molecule:
GAS value, carbinol versus methyl ester analogue reading for CCCCC(C)(O)C/C=C/[C@H]1[C@H](O)CC(=O)[C@@H]1CCCCCCCO (some centres unmarked) : the same

###

# Test system: blood pressure in the hypertensive rat
# ASSAY TEXT: Effects on systolic blood pressure in the hypertensive rat
# Type: in vivo
# Set-up: key: 0: Not significant at any time interval; 1: Significant at one time interval; 2: Significant at two time intervals
# TEST CONTEXT: 1 mg/kg intraperitoneal; 2, 4, 6 and 9 hours
// values below are reported Blood Pressure Hypertensive Rat: activity value
No unit in the answer, please; the number alone is enough.

Examples from the recorded data:
>  <COMPOUND>
CCCCC(O)C/C=C/[C@H]1[C@H](O)CC(=O)[C@@H]1CCCCCCC(=O)OC (stereo partly shown) [TR 4705, reference compound]

>  <NUMBER>
0

$$$$
>  <COMPOUND>
COC(=O)CCCCCC[C@H]1C(=O)C[C@@H](O)[C@@H]1/C=C/CC1(O)CC2C=CCC21 (stereo partly shown)

>  <NUMBER>
0

$$$$
>  <COMPOUND>
CCCC(C)C(O)C/C=C/[C@H]1[C@H](O)CC(=O)[C@@H]1CCCCCCC(=O)OC (stereo partly shown) [TR 4814, reference compound]

>  <NUMBER>
1

$$$$
>  <COMPOUND>
COC(=O)CCCCCC[C@H]1C(=O)C[C@@H](O)[C@@H]1/C=C/CC1(O)CC2CCC1C2 (stereo partly shown)

>  <NUMBER>
1

$$$$
>  <COMPOUND>
COC(=O)CCCCCC[C@H]1C(=O)C[C@@H](O)[C@@H]1/C=C/CC1(O)CCCCC1

>  <NUMBER>
0

$$$$

Blood Pressure Hypertensive Rat: activity value reading for CCCC(C)(C)C(O)C/C=C/[C@H]1[C@H](O)CC(=O)[C@@H]1CCCCCCCO (single isomer, unassigned) : 0

Blood Pressure Hypertensive Rat: activity value reading for CCCCC(C)(O)C/C=C/[C@H]1[C@H](O)CC(=O)[C@@H]1CCCCCCC(=O)OC (stereo partly shown) [TR 4704, reference compound] : 0

###

# Test system: guinea pig trachea
# ASSAY TEXT: Effects on the guinea pig trachea in vitro
# Format: cell-based
# TEST CONTEXT: comparison in words
READOUT KIND: Guinea pig trachea value, carbinol versus methyl ester analogue

>  <COMPOUND>
CCCCC(C)(O)C/C=C/[C@H]1[C@H](O)CC(=O)[C@@H]1CCCCCCCO (some centres unmarked) [TR 4698]

>  <RESULT>
the same

$$$$
>  <COMPOUND>
CCCCC(O)C/C=C/[C@H]1[C@H](O)CC(=O)[C@@H]1CCCCCCCO (stereo partly drawn) [TR 4706, 1,11α,16RS-trihydroxyprost-13E-en-9-one]

>  <RESULT>
the same

$$$$
>  <COMPOUND>
CCCC(C)C(O)C/C=C/[C@H]1[C@H](O)CC(=O)[C@@H]1CCCCCCCO (some centres unmarked) [TR 4749]

>  <RESULT>
lower

$$$$
>  <COMPOUND>
CCCCC(O)C/C=C/[C@H]1[C@H](O)CC(=O)[C@@H]1CCCCCCC(=O)OC (some centres unmarked) [TR 4705, reference compound]

>  <RESULT>
the same

$$$$

Pending compound:
Record CCCCC(C)(O)C/C=C/[C@H]1[C@H](O)CC(=O)[C@@H]1CCCCCCC(=O)OC (some centres unmarked) [TR 4704, reference compound] has guinea pig trachea Guinea pig trachea value, carbinol versus methyl ester analogue equal to the same
